System: Human T-cell leukemia virus type I
Assay: Inhibition of human recombinant HTLV1 protease at 100 uM
*1 amine or outer side, *2 acyl side, *3 side chain or, on linkers, in order; H or OH if unused. Where a SMILES comes first, the peptide text is derived from it. [ ]: non-standard residue; d: D form. X1 = O=C([C@@H](O)[C@H](Cc1ccccc1)N[*:1])[*:2]; Thz(5,5-Me2) = CC1(C)SCN[C@@H]1C(=O)O
Assign inhibition to each entry below.
Answers are plain numbers, in %.

Please review the following examples before continuing.
compound: CSCC[C@H](NC(=O)[C@@H](NC(=O)[C@H]1N(C(=O)[C@@H](O)[C@H](Cc2ccccc2)NC(=O)[C@@H](NC(=O)[C@H](CC(C)C)NC(C)=O)C(C)C)CSC1(C)C)C(C)C)C(N)=O (Ac-LV[X1][Thz(5,5-Me2)]VM-NH2)
inhibition (%): 83
//
compound: CSCC[C@H](NC(=O)[C@@H](NC(=O)[C@H]1N(C(=O)[C@@H](O)[C@H](Cc2ccccc2)NC(=O)[C@@H](NC(=O)[C@@H](NC(C)=O)C(C)C)C(C)C)CSC1(C)C)C(C)C)C(N)=O (Ac-VV[X1][Thz(5,5-Me2)]VM-NH2)
inhibition (%): 77

Now, please, on to the next compound.
Request: Which inhibition is reported for this compound? CC[C@H](C)[C@H](NC(C)=O)C(=O)N[C@H](C(=O)N[C@@H](Cc1ccccc1)[C@H](O)C(=O)N1CSC(C)(C)[C@H]1C(=O)N[C@H](C(=O)N[C@@H](CCSC)C(N)=O)C(C)C)C(C)C (Ac-IV[X1][Thz(5,5-Me2)]VM-NH2)
Result: 87

---

Assign inhibition to each entry below.
Test system: Human immunodeficiency virus 1
Experiment: Inhibition of recombinant HIV1 protease at 50 nM
*1 amine or outer side, *2 acyl side, *3 side chain or, on linkers, in order; H or OH if unused. Where a SMILES comes first, the peptide text is derived from it. [ ]: non-standard residue; d: D form. X1 = O=C([C@@H](O)[C@H](Cc1ccccc1)N[*:1])[*:2]; Thz(5,5-Me2) = CC1(C)SCN[C@@H]1C(=O)O
One number for each entry, in %.

compound: CC[C@H](C)[C@H](NC(=O)[C@H]1N(C(=O)[C@@H](O)[C@H](Cc2ccccc2)NC(=O)[C@@H](NC(=O)[C@H](CCC(N)=O)NC(C)=O)C(C)C)CSC1(C)C)C(=O)N[C@@H](CCSC)C(N)=O (Ac-QV[X1][Thz(5,5-Me2)]IM-NH2)
experimental-system: Human immunodeficiency virus 1
reported-endpoint: inhibition
readout-unit: %
endpoint-value: 95

Request: Hi! What's the reported inhibition for CSCC[C@H](NC(=O)[C@@H](NC(=O)[C@H]1N(C(=O)[C@@H](O)[C@H](Cc2ccccc2)NC(=O)[C@@H](NC(=O)[C@H](Cc2ccccc2)NC(C)=O)C(C)C)CSC1(C)C)C(C)C)C(N)=O (Ac-FV[X1][Thz(5,5-Me2)]VM-NH2) on Human immunodeficiency virus 1?
Result: 95

---

System: Human T-cell leukemia virus type I
Test: Inhibition of human recombinant HTLV1 protease at 100 uM
*1 amine or outer side, *2 acyl side, *3 side chain or, on linkers, in order; H or OH if unused. Where a SMILES comes first, the peptide text is derived from it. [ ]: non-standard residue; d: D form. X1 = O=C([C@@H](O)[C@H](Cc1ccccc1)N[*:1])[*:2]; Thz(5,5-Me2) = CC1(C)SCN[C@@H]1C(=O)O
Assign inhibition to each entry below.
Give bare numbers, in %.

molecule: CSCC[C@H](NC(=O)[C@@H](NC(=O)[C@H]1N(C(=O)[C@@H](O)[C@H](Cc2ccccc2)NC(=O)[C@@H](NC(=O)[C@H](CCC(N)=O)NC(C)=O)C(C)C)CSC1(C)C)C(C)C)C(N)=O (Ac-QV[X1][Thz(5,5-Me2)]VM-NH2)
inhibition, %: 66

molecule: CSCC[C@H](NC(=O)[C@H](CC(C)C)NC(=O)[C@H]1N(C(=O)[C@@H](O)[C@H](Cc2ccccc2)NC(=O)[C@@H](NC(=O)[C@H](CCC(N)=O)NC(C)=O)C(C)C)CSC1(C)C)C(N)=O (Ac-QV[X1][Thz(5,5-Me2)]LM-NH2)
inhibition, %: 30

Now, please, on to the next molecule.
Request: Which inhibition is reported for this molecule? CSCC[C@H](NC(=O)[C@@H](NC(=O)[C@@H]1CCCN1C(=O)[C@@H](O)[C@H](Cc1ccccc1)NC(=O)[C@@H](NC(=O)[C@H](CCC(N)=O)NC(=O)[C@@H]1CCCN1)C(C)C)C(C)C)C(N)=O (H-PQV[X1]PVM-NH2)
Result: 86

Sourced from ChEMBL document CHEMBL1148015
